TEST CONDITIONS: 353.15 K; 101.33 kPa; Liquid; Vibrating tube method
READOUT: mass density (kg/m3)
Respond numerically; units are kg/m3 and should not be typed.

# annotated cases, reported mass density shown
CCCC[N+](C)(CCCC)CCCC.O=S(=O)([N-]S(=O)(=O)C(F)(F)F)C(F)(F)F [tributylmethylammonium bis((trifluoromethyl)sulfonyl)imide]: 1217.5
CCCC[N+](C)(C)C.O=S(=O)([N-]S(=O)(=O)C(F)(F)F)C(F)(F)F [butyltrimethylammonium bis(trifluoromethylsulfonyl)imide]: 1346.8

What measured mass density goes with CC[S+](CC)CC.O=S(=O)([N-]S(=O)(=O)C(F)(F)F)C(F)(F)F [triethylsulfonium bis((trifluoromethyl)sulfonyl)imide] ? 1410.2

Reported mass density for CC[S+](C)CC.O=S(=O)([N-]S(=O)(=O)C(F)(F)F)C(F)(F)F [diethylmethylsulfonium bis[(trifluoromethyl)sulfonyl]imide] : what is it? 1449.8

###

MEASUREMENT DESCRIPTION: refractive index (Na D-line) (dimensionless)
TEST CONDITIONS: 328.15 K; 101.33 kPa; Liquid; Standard Abbe refractometry
READOUT: refractive index
Could you respond with only the numeric value?

CCCC[N+](C)(CCCC)CCCC.O=S(=O)([N-]S(=O)(=O)C(F)(F)F)C(F)(F)F [tributylmethylammonium bis((trifluoromethyl)sulfonyl)imide]: 1.41758
CC[S+](C)CC.O=S(=O)([N-]S(=O)(=O)C(F)(F)F)C(F)(F)F [diethylmethylsulfonium bis[(trifluoromethyl)sulfonyl]imide]: 1.41468
CC[S+](CC)CC.O=S(=O)([N-]S(=O)(=O)C(F)(F)F)C(F)(F)F [triethylsulfonium bis((trifluoromethyl)sulfonyl)imide]: 1.41767

Bench note: what refractive index did CCCC[N+](C)(C)C.O=S(=O)([N-]S(=O)(=O)C(F)(F)F)C(F)(F)F [butyltrimethylammonium bis(trifluoromethylsulfonyl)imide] show? 1.40006

###

TEST CONDITIONS: 343.15 K; 101.33 kPa; Liquid; Cone and plate viscometry
Let's look at some compounds and their measured viscosity.
Answer with a number only, understood to be in mPa·s.

Observe how each entry below is paired with its result.
CCCC[N+](C)(CCCC)CCCC.O=S(=O)([N-]S(=O)(=O)C(F)(F)F)C(F)(F)F [tributylmethylammonium bis((trifluoromethyl)sulfonyl)imide]: 41.4
CC[S+](C)CC.O=S(=O)([N-]S(=O)(=O)C(F)(F)F)C(F)(F)F [diethylmethylsulfonium bis[(trifluoromethyl)sulfonyl]imide]: 11.1
CC[S+](CC)CC.O=S(=O)([N-]S(=O)(=O)C(F)(F)F)C(F)(F)F [triethylsulfonium bis((trifluoromethyl)sulfonyl)imide]: 9.4

Attention now turns to another entry.
For the compound shown here, CCCC[N+](C)(C)C.O=S(=O)([N-]S(=O)(=O)C(F)(F)F)C(F)(F)F [butyltrimethylammonium bis(trifluoromethylsulfonyl)imide] , give the reported viscosity. 19.1

###

MEASUREMENT DESCRIPTION: refractive index (Na D-line) (dimensionless)
TEST CONDITIONS: 303.15 K; 101.33 kPa; Liquid; Standard Abbe refractometry
Measured refractive index, listed per entry for reference.
Would you mind answering with just the numeric figure?

CC[S+](C)CC.O=S(=O)([N-]S(=O)(=O)C(F)(F)F)C(F)(F)F [diethylmethylsulfonium bis[(trifluoromethyl)sulfonyl]imide]: 1.42168
CC[S+](CC)CC.O=S(=O)([N-]S(=O)(=O)C(F)(F)F)C(F)(F)F [triethylsulfonium bis((trifluoromethyl)sulfonyl)imide]: 1.42472
CCCC[N+](C)(CCCC)CCCC.O=S(=O)([N-]S(=O)(=O)C(F)(F)F)C(F)(F)F [tributylmethylammonium bis((trifluoromethyl)sulfonyl)imide]: 1.42491

Now consider the entry below.
Given the entry CCCC[N+](C)(C)C.O=S(=O)([N-]S(=O)(=O)C(F)(F)F)C(F)(F)F [butyltrimethylammonium bis(trifluoromethylsulfonyl)imide] , report its measured refractive index. 1.40676

###

MEASUREMENT DESCRIPTION: refractive index (Na D-line) (dimensionless)
TEST CONDITIONS: 323.15 K; 101.33 kPa; Liquid; Standard Abbe refractometry
READOUT: refractive index
Reply: number alone, nothing else.

CCCC[N+](C)(C)C.O=S(=O)([N-]S(=O)(=O)C(F)(F)F)C(F)(F)F [butyltrimethylammonium bis(trifluoromethylsulfonyl)imide]: 1.40142

Which refractive index value is on record for CCCC[N+](C)(CCCC)CCCC.O=S(=O)([N-]S(=O)(=O)C(F)(F)F)C(F)(F)F [tributylmethylammonium bis((trifluoromethyl)sulfonyl)imide] ? 1.41902

Could you tell me which refractive index is on file for CC[S+](CC)CC.O=S(=O)([N-]S(=O)(=O)C(F)(F)F)C(F)(F)F [triethylsulfonium bis((trifluoromethyl)sulfonyl)imide] ? 1.41906

Which refractive index is reported for this compound? CC[S+](C)CC.O=S(=O)([N-]S(=O)(=O)C(F)(F)F)C(F)(F)F [diethylmethylsulfonium bis[(trifluoromethyl)sulfonyl]imide] 1.41606

###

Some compounds, each annotated with its measured refractive index.
MEASUREMENT DESCRIPTION: refractive index (Na D-line) (dimensionless)
TEST CONDITIONS: 293.15 K; 101.33 kPa; Liquid; Standard Abbe refractometry
Quick one: just the number, no unit, thanks!

CC[S+](C)CC.O=S(=O)([N-]S(=O)(=O)C(F)(F)F)C(F)(F)F [diethylmethylsulfonium bis[(trifluoromethyl)sulfonyl]imide]: 1.42452
CC[S+](CC)CC.O=S(=O)([N-]S(=O)(=O)C(F)(F)F)C(F)(F)F [triethylsulfonium bis((trifluoromethyl)sulfonyl)imide]: 1.42765
CCCC[N+](C)(CCCC)CCCC.O=S(=O)([N-]S(=O)(=O)C(F)(F)F)C(F)(F)F [tributylmethylammonium bis((trifluoromethyl)sulfonyl)imide]: 1.42787

Now for a further compound.
Given CCCC[N+](C)(C)C.O=S(=O)([N-]S(=O)(=O)C(F)(F)F)C(F)(F)F [butyltrimethylammonium bis(trifluoromethylsulfonyl)imide] , state its recorded refractive index. 1.40945

###

TEST CONDITIONS: 323.15 K; 101.33 kPa; Liquid; Vibrating tube method
READOUT: mass density (kg/m3)
Record the value in kg/m3, omitting the unit from your answer.

CC[S+](CC)CC.O=S(=O)([N-]S(=O)(=O)C(F)(F)F)C(F)(F)F [triethylsulfonium bis((trifluoromethyl)sulfonyl)imide]: 1438.1
CCCC[N+](C)(C)C.O=S(=O)([N-]S(=O)(=O)C(F)(F)F)C(F)(F)F [butyltrimethylammonium bis(trifluoromethylsulfonyl)imide]: 1372.3
CCCC[N+](C)(CCCC)CCCC.O=S(=O)([N-]S(=O)(=O)C(F)(F)F)C(F)(F)F [tributylmethylammonium bis((trifluoromethyl)sulfonyl)imide]: 1241.7

Now look at this entry.
Look up mass density: CC[S+](C)CC.O=S(=O)([N-]S(=O)(=O)C(F)(F)F)C(F)(F)F [diethylmethylsulfonium bis[(trifluoromethyl)sulfonyl]imide] 1478

###

TEST CONDITIONS: 298.15 K; 101.33 kPa; Liquid; Cone and plate viscometry
READOUT: viscosity (mPa·s)
Unit mPa·s implied. Number only.

Which viscosity is listed for CC[S+](CC)CC.O=S(=O)([N-]S(=O)(=O)C(F)(F)F)C(F)(F)F [triethylsulfonium bis((trifluoromethyl)sulfonyl)imide] ? 33.9

What measured viscosity goes with CC[S+](C)CC.O=S(=O)([N-]S(=O)(=O)C(F)(F)F)C(F)(F)F [diethylmethylsulfonium bis[(trifluoromethyl)sulfonyl]imide] ? 41.1

// lookup viscosity for CCCC[N+](C)(CCCC)CCCC.O=S(=O)([N-]S(=O)(=O)C(F)(F)F)C(F)(F)F [tributylmethylammonium bis((trifluoromethyl)sulfonyl)imide] 538.9

Need viscosity, item CCCC[N+](C)(C)C.O=S(=O)([N-]S(=O)(=O)C(F)(F)F)C(F)(F)F [butyltrimethylammonium bis(trifluoromethylsulfonyl)imide] 105.2

###

TEST CONDITIONS: 303.15 K; 101.33 kPa; Liquid; Vibrating tube method
Catalogue of mass density values
Give the quantity in kg/m3, number only.

As a guide, the following entries are already answered.
CC[S+](C)CC.O=S(=O)([N-]S(=O)(=O)C(F)(F)F)C(F)(F)F [diethylmethylsulfonium bis[(trifluoromethyl)sulfonyl]imide]: 1497.3
CCCC[N+](C)(C)C.O=S(=O)([N-]S(=O)(=O)C(F)(F)F)C(F)(F)F [butyltrimethylammonium bis(trifluoromethylsulfonyl)imide]: 1389.8
CC[S+](CC)CC.O=S(=O)([N-]S(=O)(=O)C(F)(F)F)C(F)(F)F [triethylsulfonium bis((trifluoromethyl)sulfonyl)imide]: 1457.3

Moving on to another compound below.
Find the recorded mass density belonging to CCCC[N+](C)(CCCC)CCCC.O=S(=O)([N-]S(=O)(=O)C(F)(F)F)C(F)(F)F [tributylmethylammonium bis((trifluoromethyl)sulfonyl)imide] and report it. 1258.4

###

TEST CONDITIONS: 283.15 K; 101.33 kPa; Liquid; Vibrating tube method
READOUT: mass density (kg/m3)
Dear colleague, please return just the value in kg/m3, with no unit written.

Use the examples below as a reference point.
CCCC[N+](C)(CCCC)CCCC.O=S(=O)([N-]S(=O)(=O)C(F)(F)F)C(F)(F)F [tributylmethylammonium bis((trifluoromethyl)sulfonyl)imide]: 1276
CC[S+](CC)CC.O=S(=O)([N-]S(=O)(=O)C(F)(F)F)C(F)(F)F [triethylsulfonium bis((trifluoromethyl)sulfonyl)imide]: 1477

Recorded mass density of CC[S+](C)CC.O=S(=O)([N-]S(=O)(=O)C(F)(F)F)C(F)(F)F [diethylmethylsulfonium bis[(trifluoromethyl)sulfonyl]imide] , please. 1517.3

What mass density value was documented for this compound, CCCC[N+](C)(C)C.O=S(=O)([N-]S(=O)(=O)C(F)(F)F)C(F)(F)F [butyltrimethylammonium bis(trifluoromethylsulfonyl)imide] ? 1407.8

The origin of these recorded values is the NIST ThermoML archive (doi:10.1016/j.fluid.2014.08.005).
